Size (nm) for assorted compounds
- TEST_DESCRIPTION: Characterisation of lipid nanoparticle formulations (size, PDI, mRNA encapsulation)
- Format: physicochemical
- TEST_PARAMETERS: lipid nanoparticle with FFL mRNA; Process A; Cationic Lipid:DMG-PEG2000:Cholesterol:DOPE 40:5:25:30 mol%; N/P 4
Quick reminder: number only, in nm, skip the unit.

Previously resolved entries follow.
>>> observed("CCCCCCCCCCC(O)CN(CCCC(=O)Oc1c(OC)cc(/C=C/C(=O)OCCCN(C)C)cc1OC)CC(O)CCCCCCCCCC (stereo not drawn)")
43.3
>>> observed("CCCCCCCCCCC(O)CN(CCCCC(=O)Oc1c(OC)cc(/C=C/C(=O)OCCCN(C)C)cc1OC)CC(O)CCCCCCCCCC (stereo not drawn)")
43.3
>>> observed("CCCCCCCCCCC(O)CN(CCCC(=O)Oc1c(OC)cc(C(=O)OCCCN(C)C)cc1OC)CC(O)CCCCCCCCCC (stereo not drawn)")
48.9
>>> observed("CCCCCCCCCCC(O)CN(CCCC(=O)Oc1ccc(C(=O)OCCCN(C)C)cc1CC)CC(O)CCCCCCCCCC (stereo not drawn)")
65.1
>>> observed("CCCCCCCCC(O)CN(CCCC(=O)Oc1c(OC)cc(C(=O)OCCCN(C)C)cc1OC)CC(O)CCCCCCCC (stereo not drawn)")
47.6
>>> observed("CCCCCCCCC(O)CN(CCCCC(=O)Oc1c(OC)cc(C(=O)OCCCN(C)C)cc1OC)CC(O)CCCCCCCC (stereo not drawn) [Compound 3]")
40.3
>>> observed("CCCCCCCCCCCCC(O)CN(CCCCC(=O)Oc1c(OC)cc(/C=C/C(=O)OCCCN(C)C)cc1OC)CC(O)CCCCCCCCCCCC (stereo not drawn)")
44.0
>>> observed("CCCCCCCCCCCCC(O)CN(CCCCC(=O)Oc1c(OC)cc(C(=O)OCCCN(C)C)cc1OC)CC(O)CCCCCCCCCCCC (stereo not drawn)")
47.0

Field Size (nm) (entry CCCCCCCCC(O)CN(CCCCC(=O)Oc1c(OC)cc(C(=O)OCCCN(C)C)cc1OC)CC(O)CCCCCCCC (stereo not drawn) [Compound 9] ) reads 42.3

Field Size (nm) (entry CCCCCCCCCCCCC(O)CN(CCCC(=O)Oc1c(OC)cc(C(=O)OCCCN(C)C)cc1OC)CC(O)CCCCCCCCCCCC (stereo not drawn) ) reads 48.4

Field Size (nm) (entry CCCCCCC/C=C\C/C=C\CCCCC(O)CN(CCCC(=O)Oc1c(OC)cc(C(=O)OCCCN(C)C)cc1OC)CC(O)CCCC/C=C\C/C=C\CCCCCCC (stereo not drawn) ) reads 64.2

Field Size (nm) (entry CCCCCCCCCCC(O)CN(CCCCC(=O)Oc1c(OC)cc(C(=O)OCCCN(C)C)cc1OC)CC(O)CCCCCCCCCC (stereo not drawn) ) reads 41.4

---

- TEST_DESCRIPTION: Characterisation of lipid nanoparticle formulations (size, PDI, mRNA encapsulation)
- Type: physicochemical
- TEST_PARAMETERS: lipid nanoparticle with FFL mRNA; Process A; Cationic Lipid:DMG-PEG2000:Cholesterol:DOPE 40:5:25:30 mol%; N/P 4
Encapsulation % for assorted compounds
Quick reminder: number only, in %, skip the unit.

Previously resolved entries follow.
>>> observed("CCCCCCCCCCC(O)CN(CCCCC(=O)Oc1c(OC)cc(/C=C/C(=O)OCCCN(C)C)cc1OC)CC(O)CCCCCCCCCC (stereo not drawn)")
94
>>> observed("CCCCCCC/C=C\\C/C=C\\CCCCC(O)CN(CCCC(=O)Oc1c(OC)cc(C(=O)OCCCN(C)C)cc1OC)CC(O)CCCC/C=C\\C/C=C\\CCCCCCC (stereo not drawn)")
95
>>> observed("CCCCCCCCCCCCC(O)CN(CCCC(=O)Oc1c(OC)cc(C(=O)OCCCN(C)C)cc1OC)CC(O)CCCCCCCCCCCC (stereo not drawn)")
97
>>> observed("CCCCCCCCCCCCC(O)CN(CCCCC(=O)Oc1c(OC)cc(C(=O)OCCCN(C)C)cc1OC)CC(O)CCCCCCCCCCCC (stereo not drawn)")
73
>>> observed("CCCCCCCCCCC(O)CN(CCCCC(=O)Oc1c(OC)cc(C(=O)OCCCN(C)C)cc1OC)CC(O)CCCCCCCCCC (stereo not drawn)")
91
>>> observed("CCCCCCCCCCC(O)CN(CCCC(=O)Oc1c(OC)cc(/C=C/C(=O)OCCCN(C)C)cc1OC)CC(O)CCCCCCCCCC (stereo not drawn)")
95
>>> observed("CCCCCCCCCCC(O)CN(CCCC(=O)Oc1ccc(C(=O)OCCCN(C)C)cc1CC)CC(O)CCCCCCCCCC (stereo not drawn)")
96
>>> observed("CCCCCCCCCCCCC(O)CN(CCCCC(=O)Oc1c(OC)cc(/C=C/C(=O)OCCCN(C)C)cc1OC)CC(O)CCCCCCCCCCCC (stereo not drawn)")
98

Field Encapsulation % (entry CCCCCCCCC(O)CN(CCCCC(=O)Oc1c(OC)cc(C(=O)OCCCN(C)C)cc1OC)CC(O)CCCCCCCC (stereo not drawn) [Compound 3] ) reads 89

Field Encapsulation % (entry CCCCCCCCC(O)CN(CCCC(=O)Oc1c(OC)cc(C(=O)OCCCN(C)C)cc1OC)CC(O)CCCCCCCC (stereo not drawn) ) reads 94

Field Encapsulation % (entry CCCCCCCCC(O)CN(CCCCC(=O)Oc1c(OC)cc(C(=O)OCCCN(C)C)cc1OC)CC(O)CCCCCCCC (stereo not drawn) [Compound 9] ) reads 79

Field Encapsulation % (entry CCCCCCCCCCC(O)CN(CCCC(=O)Oc1c(OC)cc(C(=O)OCCCN(C)C)cc1OC)CC(O)CCCCCCCCCC (stereo not drawn) ) reads 94

These measurements were taken from patent US20230150921A1.
